Tested on: male ddY mice
Experiment: Stamina improvement: swimming until exhaustion in a running water pool
Format: in vivo
Settings: material 10 mg/ml, oral 10 ml/kg once a day for seven days; 10 animals per group; relative value, Comparative Example 21 (control) = 100
Answer each item with its documented Elongation of swimming duration (%), without chicken extract powder.

In: Would you kindly share the measured Elongation of swimming duration (%), without chicken extract powder for C/C=C1/[C@H](O[C@@H]2O[C@H](CO)[C@@H](O)[C@H](O)[C@H]2O)OC=C(C(=O)OC)[C@H]1CC(=O)OCCc1ccc(O)c(O)c1 [Comparative Example 13, oleuropein] ?
Out: 120%

In: Same question for N=C(N)NCCC[C@H](N)C(=O)O [Comparative Example 2, arginine] please.
Out: 110%

In: Same question for C[N+](C)(C)CC(O)CC(=O)[O-] (centres unmarked) [Comparative Example 8, carnitine] please.
Out: 110%

In: Same question for COC1=C(OC)C(=O)C(C/C=C(\C)CC/C=C(\C)CC/C=C(\C)CC/C=C(\C)CC/C=C(\C)CC/C=C(\C)CC/C=C(\C)CC/C=C(\C)CC/C=C(\C)CCC=C(C)C)=C(C)C1=O [Comparative Example 14, ubiquinone (CoQ10)] please.
Out: 110%

In: Same question for O=C(O)CC(O)(CC(=O)O)C(=O)O [Comparative Example 7, citric acid] please.
Out: 110%

In: Same question for CN(CC(=O)O)C(=N)N [Comparative Example 1, creatine] please.
Out: 110%

In: Same question for Cn1c(=O)c2c(ncn2C)n(C)c1=O [Comparative Example 6, caffeine] please.
Out: 110%

In: Same question for O=C(O)CCCCC1CCSS1 (centres unmarked) [Comparative Example 9, thioctic acid] please.
Out: 110%
